Provenance of the data: patent US20240376185A1

- target: T1, recombinant tetanus toxin fragment C (rTTC) (Clostridium tetani, UniProt P04958 865-1315)
- T1 sequence: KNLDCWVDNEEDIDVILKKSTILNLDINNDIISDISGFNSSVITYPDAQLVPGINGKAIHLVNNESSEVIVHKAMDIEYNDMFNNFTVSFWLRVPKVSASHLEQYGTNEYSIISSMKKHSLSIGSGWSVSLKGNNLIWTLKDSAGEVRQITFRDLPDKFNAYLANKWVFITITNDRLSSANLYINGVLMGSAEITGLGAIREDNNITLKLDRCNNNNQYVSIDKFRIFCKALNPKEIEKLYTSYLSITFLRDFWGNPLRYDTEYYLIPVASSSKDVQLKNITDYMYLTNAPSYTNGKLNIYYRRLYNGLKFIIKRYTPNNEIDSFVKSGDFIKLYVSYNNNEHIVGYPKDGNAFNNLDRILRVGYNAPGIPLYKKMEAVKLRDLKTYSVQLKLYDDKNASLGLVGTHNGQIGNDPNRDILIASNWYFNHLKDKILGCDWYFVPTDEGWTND
- assay details: ELISA, directly coated rTTC, unlabelled binder
This listing pairs binders with measured maximal absorbance at 450 nm.
Output spec: single numeric token, no unit.

SVT25L (VHH) VHH: QVQLQESGGGLVQAGGSLRLSCAASGRTISVYAMGWFRQAPGKQREFVAAISRSDNTYYTDSVKGRFTISRDNVKNTLYLQMNSLKPEETAVYYCAADPNLMYETKWKYRALEAWGQGTLVTVSS: 0.936
SVT15L (VHH) VHH: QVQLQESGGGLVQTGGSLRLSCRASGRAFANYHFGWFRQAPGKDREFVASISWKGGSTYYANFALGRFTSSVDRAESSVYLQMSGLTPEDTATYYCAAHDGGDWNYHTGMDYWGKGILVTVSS: 0.528
SVT20L (VHH) VHH: QVQLQQSGGGLVQAGGSLRLSCAASGRTMSSYAMGWFRQAPGKQREFVAAISRSGGNTYYTDSVKGRFTISRDNAKNTLYLQMNSLKPEETAVYYCAADPNLMYESKWKYRALEAWGQGTLVTVSS: 0.967

// next entry
# input binder: SVT03L (VHH) VHH: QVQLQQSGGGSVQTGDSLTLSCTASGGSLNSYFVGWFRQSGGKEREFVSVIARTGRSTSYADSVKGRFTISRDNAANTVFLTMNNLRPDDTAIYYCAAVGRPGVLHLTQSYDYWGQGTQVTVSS ; wanted: its maximal absorbance at 450 nm
0.053
